# experimental-protocol: A CellTox Green Cytotoxicity Assay to monitor cytotoxicity in HepG2 cells - 0 hour (AID 1224882); note: nearly all actives have a fitted effect of over 35% in size
# cond: CellTox Green fluorescence; series mostly up to 76.8 µM
Calls of active or inactive are those of the source. Calls come from the whole dose curve; as a rule, active = well fitted activation curve with a large enough effect in the repeat runs; inconclusive = weak or mixed curves; inactive = flat fitted curve, though single readings scatter.
recorded-metric: outcome

Known results for compounds:
compound	recorded-metric	result
CC(=O)O[C@]1(C(C)=O)CC[C@H]2[C@@H]3C=C(C)C4=CC(=O)CC[C@]4(C)[C@H]3CC[C@@]21C	outcome	inactive
Cc1ccc2c(c1)C(=O)OC2=O	outcome	inactive
Brc1nc2ccccc2s1	outcome	inactive
FC(F)(F)C(Cl)Br (centres undefined)	outcome	inactive

Enquiry: Value lookup for outcome; key = C=CCOC(=O)C(=C)C
Return: inactive

Enquiry: Value lookup for outcome; key = [O-]/[N+](=N\O)c1ccccc1
Return: inactive

Enquiry: Value lookup for outcome; key = CC(C)(C)c1cccc(C(C)(C)C)c1O
Return: inactive

Enquiry: Value lookup for outcome; key = C1COCCN1
Return: inactive

Enquiry: Value lookup for outcome; key = CCCCCCCC/C=C\CCCCCCCC(=O)O
Return: inactive

Enquiry: Value lookup for outcome; key = C=C[C@@]1(C)CC(=O)[C@]2(O)[C@@]3(C)[C@@H](O)CCC(C)(C)[C@@H]3[C@H](O)[C@H](OC(C)=O)[C@@]2(C)O1
Return: inactive

Enquiry: Value lookup for outcome; key = CCCCCCOCCOCCO
Return: inactive

Enquiry: Value lookup for outcome; key = O=S1(=O)CCCO1
Return: inactive

Enquiry: Value lookup for outcome; key = CNC[C@H](O)c1ccc(O)c(O)c1
Return: inactive

Enquiry: Value lookup for outcome; key = ClC/C=C/CCl
Return: inactive

Enquiry: Value lookup for outcome; key = COC(=O)CC(=O)OC
Return: inactive

* * *

# experimental-protocol: qHTS assay for identifying genotoxic compounds that show differential cytotoxicity against isogenic chicken DT40 cell lines with known DNA damage response pathways - wild type cell line (AID 743012); note: nearly all actives have a fitted effect of over 60% in size
# cond: DT40 wild type chicken cells viability, CellTiter-Glo, 40 h; series mostly up to 68.4 µM
Records with an inconclusive call do not appear. Active and inactive are the calls of the source. Calls come from the whole dose curve; as a rule, active = well fitted cell-killing curve with a large enough effect in the repeat runs; inconclusive = weak or mixed curves, or effect the other way; inactive = no such curve, though single readings can be large or run the other way.
In this exercise, the only acceptable responses are label 1 (active), label 0 (inactive)

Would you please look over these solved cases?
molecule	qualitative-label
ClC/C=C/CCl	label 0
c1ccc2c(c1)ccc1cc3c(ccc4ccccc43)cc12	label 0
CCCCCCCC/C=C\CCCCCCCC(=O)O	label 0
C[C@]12C=CC(=O)C=C1CC[C@H]1[C@@H]3C[C@@H](O)[C@](O)(C(=O)CO)[C@@]3(C)C[C@H](O)[C@@]12F	label 1
O=C(O)c1ccc(O)cc1	label 0

Enquiry: Test call for this molecule, please: Cc1ccc(C(C)(C)C)cc1
Return: label 0

Enquiry: Test call for this molecule, please: OC[C@H]1O[C@@H]2O[C@H]3[C@H](O)[C@@H](O)[C@@H](O[C@H]4[C@H](O)[C@@H](O)[C@@H](O[C@H]5[C@H](O)[C@@H](O)[C@@H](O[C@H]6[C@H](O)[C@@H](O)[C@@H](O[C@H]7[C@H](O)[C@@H](O)[C@@H](O[C@H]1[C@H](O)[C@H]2O)O[C@@H]7CO)O[C@@H]6CO)O[C@@H]5CO)O[C@@H]4CO)O[C@@H]3CO
Return: label 0

Enquiry: Test call for this molecule, please: C=CN1CCCC1=O
Return: label 0

Enquiry: Test call for this molecule, please: Cc1ccc([N+](=O)[O-])c(C)c1
Return: label 0

Enquiry: Test call for this molecule, please: Clc1ccc(Sc2cc(Cl)c(Cl)cc2Cl)cc1
Return: label 0

Enquiry: Test call for this molecule, please: CC(C)(C)c1cccc(C(C)(C)C)c1O
Return: label 0

Enquiry: Test call for this molecule, please: C=C[Si](OCCOC)(OCCOC)OCCOC
Return: label 1

Enquiry: Test call for this molecule, please: CC(=O)[C@H]1CC[C@H]2[C@@H]3CC=C4C[C@@H](O)CC[C@]4(C)[C@H]3CC[C@]12C
Return: label 0

Enquiry: Test call for this molecule, please: Nc1ccc(O)c(N)c1
Return: label 1

Enquiry: Test call for this molecule, please: O=S1(=O)CCCO1
Return: label 0

Enquiry: Test call for this molecule, please: CCc1cccc2c3c([nH]c12)C(CC)(CC(=O)O)OCC3 (stereo unspecified)
Return: label 0

Enquiry: Test call for this molecule, please: CCCCCC=O
Return: label 0

Enquiry: Test call for this molecule, please: CC1(C)OC(=O)NC1=O
Return: label 0

Enquiry: Test call for this molecule, please: Oc1c(Cl)ccc(Cl)c1Cl
Return: label 0

Enquiry: Test call for this molecule, please: COc1ccc2nc(N)sc2c1
Return: label 0

Enquiry: Test call for this molecule, please: Cc1ccc(C(C)(C)C)c(O)c1
Return: label 1

* * *

# experimental-protocol: qHTS assay to identify small molecule antagonists of the androgen receptor (AR) signaling pathway using the MDA cell line in the presence of 0.5 nM R1881 - cell viability counter screen (AID 1259242); note: nearly all actives have a fitted effect of over 45% in size
# cond: MDA-kb2 viability, CellTiter-Fluor protease fluorescence, 16 h; series mostly up to 92.4 µM
Records with an inconclusive call do not appear. Calls of active or inactive are those of the source. Calls come from the whole dose curve; as a rule, active = well fitted cell-killing curve with a large enough effect in the repeat runs; inconclusive = weak or mixed curves, or effect the other way; inactive = flat fitted curve, though single readings scatter.
In this exercise, the only acceptable responses are active, inactive

molecular-string	qualitative-label
c1ccc2c(c1)[nH]c1ccccc12	inactive
COCCOCCOCCO	inactive
O=Cc1ccccc1C=O	inactive
CCC(=O)O[C@H]1[C@H](O[C@@H]2[C@@H](C)[C@H](O[C@H]3C[C@@](C)(OC)[C@@H](O)[C@H](C)O3)[C@@H](C)C(=O)O[C@H](CC)[C@@](C)(O)[C@H](O)[C@@H](C)C(=O)[C@H](C)C[C@@]2(C)O)O[C@H](C)C[C@@H]1N(C)C	inactive
CC(=O)[C@H]1CC[C@H]2[C@@H]3CC=C4C[C@@H](O)CC[C@]4(C)[C@H]3CC[C@]12C	inactive

Enquiry: Test call for this molecule, please: C[N+](C)(C)CCO
Return: inactive

Enquiry: Test call for this molecule, please: CC(=O)Oc1c(C)c(C)c2c(c1C)CC[C@@](C)(CCC[C@H](C)CCC[C@H](C)CCCC(C)C)O2
Return: inactive

Enquiry: Test call for this molecule, please: ClC/C=C/CCl
Return: inactive

Enquiry: Test call for this molecule, please: O=C1OC2(c3ccccc31)c1cc(I)c(O)c(I)c1Oc1c2cc(I)c(O)c1I
Return: active

Enquiry: Test call for this molecule, please: COc1ccc(C(=O)c2ccccc2O)c(O)c1
Return: inactive

Enquiry: Test call for this molecule, please: CN1CCOCC1
Return: inactive

* * *

# experimental-protocol: qHTS assay to identify small molecule antagonists of the peroxisome proliferator-activated receptor gamma (PPARg) signaling pathway - cell viability counter screen (AID 743194); note: nearly all actives have a fitted effect of over 55% in size
# cond: PPARg-bla HEK293H viability, CellTiter-Glo luminescence, 17 h, co-treated with 50 nM rosiglitazone; series mostly up to 62.6 µM
Results filed as inconclusive are left out. Calls of active or inactive are those of the source. Calls follow the shape of the dose curve; as a rule, active = well fitted cell-killing curve with a large enough effect in the repeat runs; inconclusive = weak or mixed curves, or effect the other way; inactive = no such curve, though single readings can be large or run the other way.
In this exercise, the only acceptable responses are Y for active, N for inactive

Would you please look over these solved cases?
compound	qualitative-label
Nc1ccc(N)c(Cl)c1	N
C/C=C/C(=O)N(CC)c1ccccc1C	N
CC1(C)C(C=C(Cl)Cl)C1C(=O)OCc1cccc(Oc2ccccc2)c1 (configuration not stated)	N
COc1ccc(C(=O)c2ccccc2O)c(O)c1	N
c1ccc2c(c1)ccc1cc3c(ccc4ccccc43)cc12	N
Cc1ccc(C(C)(C)C)cc1	N
Cc1ccc(/C(=C\CN2CCCC2)c2ccccn2)cc1	N
CC(=O)O[C@]1(C(C)=O)CC[C@H]2[C@@H]3C=C(C)C4=CC(=O)CC[C@]4(C)[C@H]3CC[C@@]21C	N

Enquiry: Test call for this compound, please: ClC/C=C/CCl
Return: N

Enquiry: Test call for this compound, please: CCC(=O)O[C@H]1[C@H](O[C@@H]2[C@@H](C)[C@H](O[C@H]3C[C@@](C)(OC)[C@@H](O)[C@H](C)O3)[C@@H](C)C(=O)O[C@H](CC)[C@@](C)(O)[C@H](O)[C@@H](C)C(=O)[C@H](C)C[C@@]2(C)O)O[C@H](C)C[C@@H]1N(C)C
Return: N

Enquiry: Test call for this compound, please: CC1(C)NC(=O)N(c2ccc([N+](=O)[O-])c(C(F)(F)F)c2)C1=O
Return: N

Enquiry: Test call for this compound, please: OC[C@H]1O[C@@H]2O[C@H]3[C@H](O)[C@@H](O)[C@@H](O[C@H]4[C@H](O)[C@@H](O)[C@@H](O[C@H]5[C@H](O)[C@@H](O)[C@@H](O[C@H]6[C@H](O)[C@@H](O)[C@@H](O[C@H]7[C@H](O)[C@@H](O)[C@@H](O[C@H]1[C@H](O)[C@H]2O)O[C@@H]7CO)O[C@@H]6CO)O[C@@H]5CO)O[C@@H]4CO)O[C@@H]3CO
Return: N

Enquiry: Test call for this compound, please: FC(F)(F)C(Cl)Br (configuration not stated)
Return: N
